Listing of entries alongside the reported IC50.
tested on: ATXN3 transcripts containing exon 4; test: ATXN3 quantitative splicing assay (qPCR, E4E5 transcripts containing exon 4); assay type: cell-based; conditions: Human neuroblastoma SK-N-MC cells, 24 h treatment, qPCR primers/probe E4E5

Example entries begin here.
N[C@H](Cc1sc2c(NCc3cccs3)snc2c1Cl)C(CO)CO [Compound 89]	5 to 10 µM
N[C@H](Cc1sc2c(NCc3cccs3)snc2c1Cl)CC1CC1 [Compound 58]	0.501 to 5 µM
Cc1c(C[C@@H](N)C2CC(F)(F)C2)sc2c(NCc3cccs3)snc12 [Compound 84]	0.501 to 5 µM
Cc1c(C[C@@H](N)[C@H](C)F)sc2c(NCc3cccs3)snc12 [Compound 72]	0.501 to 5 µM
C[C@H](N)Cc1sc2c(NCc3cccs3)snc2c1-c1ccccc1 [Compound 128]	10 to 40 µM
C[C@H](F)[C@H](N)Cc1sc2c(NCc3ccc(F)s3)snc2c1Cl [Compound 96]	0.501 to 5 µM
C[C@H](N)C(F)(F)c1sc2c(NCc3cccs3)snc2c1Br [Compound 99]	0.501 to 5 µM
N[C@H](Cc1sc2c(NCc3cccs3)snc2c1Br)CC(F)(F)F [Compound 39]	0.501 to 5 µM
C[C@H](F)[C@H](N)Cc1sc2c(NCc3nccs3)snc2c1Br [Compound 105]	0.101 to 0.5 µM
N[C@H](Cc1sc2c(NCc3ccco3)snc2c1Br)C(F)F [Compound 111]	0.501 to 5 µM

(Q) Could you share which IC50 value was measured for C[C@H](N)Cc1cc2nsc(NCc3cccs3)c2s1 [Compound 66] ?
(A) 10 to 40 µM

(Q) Could you share which IC50 value was measured for N[C@H](Cc1sc2c(NCc3cccs3)snc2c1Br)CC1CC1 [Compound 49] ?
(A) 0.501 to 5 µM
